test system: DMS-114; experiment: NCI tumour cell line growth inhibition, 48 h
Calls of active or inactive are those of the source. Rule as the data show it: active = GI50 up to about 1.1 µM and inactive = higher.
Listing of recorded GI50 by entry.
Metric Name: GI50

>>> measured_result("N#CCC(=O)N/N=C1/C(=O)NC(=O)C(=O)C1c1nc2ccccc2s1 (centres undefined)")
"> 100 µM (inactive)"
>>> measured_result("COC(=O)/C(=N/NC(C)(C)C)C(C(=O)C=C(C)C)C(=O)C(=O)Nc1ccc(Cl)cc1C (centres undefined)")
"> 100 µM (inactive)"
>>> measured_result("Cc1cc(CC(=O)NCCO)n(CCO)c(=O)c1")
"> 100 µM (inactive)"
>>> measured_result("COC(=O)C(=O)C(C(C)=O)C(=O)NCc1ccc(OC)c(OC)c1 (centres undefined)")
"> 100 µM (inactive)"
>>> measured_result("CN/N=C(\\C(=O)Nc1ccc(C(F)(F)F)cc1[N+](=O)[O-])C(c1cnc2ccc([N+](=O)[O-])cc2n1)[N+](=O)[O-] (centres undefined)")
"10.4 µM (inactive)"
>>> measured_result("CC(=O)NC(CCCCNC(=O)NCCCl)C(=O)NCc1ccccc1 (centres undefined)")
"> 100 µM (inactive)"
>>> measured_result("Cc1cn(C2CC(O)C(CO)C2C)c(=O)[nH]c1=O (centres undefined)")
"> 100 µM (inactive)"
>>> measured_result("CC(C)(C)C1CC[C@H]2c3c([nH]c4ccc(Br)cc34)[C@H]3C(=O)N(c4ccccc4)C(=O)[C@H]3[C@H]2C1 (some centres undefined)")
"18.2 µM (inactive)"
>>> measured_result("O=C1O/C(=C(\\Br)c2cccc3ccccc23)c2ccccc21")
"> 33.3 µM (inactive)"

====

system: ACHN; assay: NCI tumour cell line growth inhibition, 48 h
Active and inactive are the calls of the source. Rule as the data show it: active = GI50 up to about 1.1 µM and inactive = higher.
Labels: active, inactive

>>> group_label("COc1ccc(OC)c(NC(=O)C(=O)C(C(C)=O)c2nc3ccc(Cl)cc3nc2O)c1 (configuration not stated)")
"inactive"
>>> group_label("CCOc1nc(N)nc(C)c1/N=N/c1ccc(Cl)cc1")
"inactive"
>>> group_label("O=C(NCCCN(CCCCN(CCCNC(=O)C(F)(F)F)CCCc1ccccc1)CCCc1ccccc1)C(F)(F)F")
"inactive"
>>> group_label("Cc1nc2ccc(Cl)cc2c2c1CCO2")
"inactive"
>>> group_label("CCCCCCC(=O)c1ccc2ccccc2c1O")
"inactive"
>>> group_label("O=C1CCCC/C(=C/c2ccccc2)N1")
"inactive"
>>> group_label("O=C(c1cc2c(c3ccccc13)NCCN=C2C(F)(F)F)C(F)(F)F")
"inactive"
>>> group_label("COc1cc(C2c3cc4c(cc3OC(O)C2C)OCO4)cc(OC)c1O (configuration not stated)")
"inactive"
>>> group_label("N#Cc1ccc(-c2nc(C#N)c(N)o2)cc1")
"inactive"
>>> group_label("c1ccc(CCn2cncn2)cc1")
"inactive"
>>> group_label("COc1cc2c(cc1OC)-c1cc3ccccc3c[n+]1CC2")
"inactive"
>>> group_label("CC(=O)OC1(C)CC(C)C(=O)C(C(O)CC2CC(=O)NC(=O)C2)C1 (configuration not stated)")
"active"

====

tested on: ACHN; experiment: NCI tumour cell line growth inhibition, 48 h
Active and inactive are the calls of the source. Rule as the data show it: active = GI50 up to about 1.1 µM and inactive = higher.
Listing of recorded GI50 by entry.
Metric Name: GI50

>>> measured_result("CCCCCCCC1c2cc3nc(cc4[nH]c(cc5nc(cc([nH]2)[C@@]1(C)CC(=O)N(C)C)C(C)=C5CCC(=O)O)c(CCC(=O)O)c4C)C=C3C (stereo partly drawn)")
"18.5 µM (inactive)"
>>> measured_result("CC(C)(CCCCC(C)(C)NCC1COc2ccccc2O1)NCC1COc2ccccc2O1 (stereo not drawn)")
"> 10 µM (inactive)"
>>> measured_result("COCn1cnc2c(=O)n(-c3ccc(C)cc3)c(=S)n(-c3ccc(C)cc3)c21")
"> 100 µM (inactive)"
>>> measured_result("CCOc1ccccc1N1C(=O)C(=O)C(c2nc3ccccc3s2)C(=O)C1=O")
"5.86 µM (inactive)"
>>> measured_result("CC1(C#N)CC(C)(C)C(/C=C2/CC(C)(C)C(/C=C3/OC(=N)CC3(C)C)=N2)=N1 (stereo not drawn)")
"21.3 µM (inactive)"
>>> measured_result("O=C(O)CCC[C@]1(O)O[C@@]2(CCCC2=O)[C@]2(O)CCC[C@@]21O")
"> 100 µM (inactive)"
>>> measured_result("CCC(C(=O)c1cccs1)C(O)(C(F)(F)F)C(F)(F)F (stereo not drawn)")
"> 100 µM (inactive)"
>>> measured_result("COc1ccc(N[S+]([O-])c2ccc(OC)cc2)cc1 (stereo not drawn)")
"95.1 µM (inactive)"
>>> measured_result("COc1ccccc1-c1cc(=O)c2ccc(OC)c(OC)c2o1")
"39.4 µM (inactive)"
>>> measured_result("c1ccc(COc2nc3cc(C45CC6CC(CC(C6)C4)C5)ccc3[nH]2)cc1")
"14.6 µM (inactive)"
>>> measured_result("CCCCCCCCCCCCCCCCCCNc1nc(=O)n(C2CC(OP(=O)(O)OCC3OC(n4cc(F)c(=O)[nH]c4=O)CC3O)C(CO)O2)cc1F (stereo not drawn)")
"11.2 µM (inactive)"
>>> measured_result("CCOc1ccc(C(CN2CCOCC2)C(C)=O)cc1OC (stereo not drawn)")
"14.2 µM (inactive)"
>>> measured_result("COc1c(O)cc(C(=O)O[C@@H]2Cc3c(O)cc(O)cc3O[C@@H]2c2cc(O)c(O)c(O)c2)cc1O")
"30.6 µM (inactive)"

====

tested on: SK-MEL-5; experiment: NCI tumour cell line growth inhibition, 48 h
Calls of active or inactive are those of the source. Cut-off read from the data, not from the text of the source: active = GI50 up to about 1.1 µM and inactive = higher. Residues, ends and D or L forms follow the SMILES beside them. *: point of attachment. Boc = CC(C)(C)OC(=O)*; OBn = c1ccc(CO*)cc1
Labels: yes = active, no = inactive

>>> group_label("CN(C)c1ccc(C(=NN)c2ccc(N(C)C)cc2)cc1")
"yes"
>>> group_label("O=c1/c(=C/c2ccccc2O)sc2nc3ccccc3n12")
"no"
>>> group_label("COC(=O)C(C)(C)OCc1ccc(C2NC(=O)N(c3cccc(Cl)c3)C(=O)N2c2cccc(Cl)c2)cc1 (stereo unspecified)")
"no"
>>> group_label("N#Cc1cc([N+](=O)[O-])ccc1NC(=O)C(F)(F)F")
"no"
>>> group_label("COc1ccc(C(CC(=O)c2ccccc2)C(=O)c2ccc3c(c2)OCO3)cc1 (stereo unspecified)")
"no"
>>> group_label("CCNc1cnc2c(n1)c(=O)n(C)c(=O)n2C")
"no"
>>> group_label("COc1ccc(/C=C(\\C(=C/c2ccc(OC)cc2)[N+](=O)[O-])[N+](=O)[O-])cc1")
"no"
>>> group_label("c1ccc(COc2nc3cc(C45CC6CC(CC(C6)C4)C5)ccc3[nH]2)cc1")
"no"
>>> group_label("CC1(C)O[C@@H](C[C@]2(C#N)C[C@H](CCl)OC(C)(C)O2)C[C@@H](C#N)O1")
"no"
>>> group_label("CC(C)C(NC(=O)CNC(=O)C1CCCN1C(=O)C(NC(=O)OC(C)(C)C)C(C)C)C(=O)NCC(=O)OCc1ccccc1 (stereo unspecified) (Boc-VPGVG-OBn; configuration not given here)")
"no"
>>> group_label("O=C(Nc1cccc(O)c1)C(=O)C(C(=O)c1ccccc1F)C1OC(=O)c2ccccc21 (stereo unspecified)")
"no"
>>> group_label("O=C(CC(O)(C(F)(F)F)C(F)(F)F)c1cccs1")
"no"
>>> group_label("CSc1cc(-c2cc3ccccc3o2)oc(=O)c1C#N")
"no"
>>> group_label("O=c1ccc(-c2ccc(-n3ccnc3)cc2)nn1CCO")
"no"
>>> group_label("COc1ccc2c(c1)nc1n2C(c2c(F)cccc2F)SC1 (stereo unspecified)")
"no"
>>> group_label("CC1=C(N2CC2)C(=O)C(C)=C(N2CC2)C1=O")
"yes"
>>> group_label("O=C1NC(c2ccc(O)cc2)C2CCC1C2 (stereo unspecified)")
"no"
>>> group_label("CCOC(=O)c1c(NC(=O)OC)c(C#N)c2n1CCCCC2")
"no"
>>> group_label("C=CC[C@@H](N)C(=O)N(C)[C@@H](C)[C@@H](O)c1ccccc1")
"no"
>>> group_label("O=C1OC2c3ccccc3C(=O)C2(c2ccccc2)N1c1ccccc1 (stereo unspecified)")
"no"
>>> group_label("CCN1CN(c2ccccc2)C2(CCN(CC(CC3OCCO3)c3ccc(F)cc3)CC2)C1=O (stereo unspecified)")
"no"

====

test system: A549; assay: NCI tumour cell line growth inhibition, 48 h
Calls of active or inactive are those of the source. Cut-off read from the data, not from the text of the source: active = GI50 up to about 1.1 µM and inactive = higher.
Labels: label 1 = active, label 0 = inactive

>>> group_label("CC(=O)Nc1cc2cc(NS(=O)(=O)c3cc(C(F)(F)F)cc(C(F)(F)F)c3)ccc2oc1=O")
"label 0"
>>> group_label("Oc1ccc2ccccc2c1/N=N/c1cccc2ccccc12")
"label 0"
>>> group_label("CC(=O)Nc1ccc(C(=O)N2N=C(C)/C(=C\\c3c(O)ccc4ccccc34)C2=O)cc1")
"label 0"
>>> group_label("CSc1c(C#N)c(N)nc2c(/N=N\\c3ccc(Br)cc3)c(N)nn12")
"label 0"
>>> group_label("N#CC(C#N)=C(N)/C(C#N)=C/c1ccc2ccccc2n1")
"label 0"
>>> group_label("Cc1cccc2c1c(=O)c1c(O)cc3c(c1n2C)C=CC(C)(C)O3")
"label 0"
>>> group_label("CCOC(=O)C(C)c1nc2cc(C(F)(F)F)ccc2[nH]c1=O (centres undefined)")
"label 0"
>>> group_label("Cc1ccc(S(=O)(=O)c2ccsc2NC(=O)c2ccccc2)cc1")
"label 0"
>>> group_label("O=C(O)CCC[C@]1(O)O[C@@]2(CCCC2=O)[C@]2(O)CCC[C@@]21O")
"label 0"
>>> group_label("Brc1ccc2ns[s+]c2c1")
"label 0"
>>> group_label("CCOC(=O)/C=C(\\C)c1ccc(Cl)cc1")
"label 0"
>>> group_label("CC1=CC(C)C(O)C(C)/C=C\\C(O)C/C=C(/C)C(=O)CC(O)C(C)\\C=C/C=C\\C=C/C(=O)NC2=C(O)C(=O)c3c(cc(C)c(O)c3C1=O)C2=O (centres undefined)")
"label 0"
>>> group_label("CCCCCCCC1c2cc3nc(cc4[nH]c(cc5nc(cc([nH]2)[C@@]1(C)CC(=O)N(C)C)C(C)=C5CCC(=O)O)c(CCC(=O)O)c4C)C=C3C (some centres undefined)")
"label 0"
>>> group_label("CCCCCCC(O)CC[C@H]1CCC[C@@H](C)N1 (some centres undefined)")
"label 0"
>>> group_label("COC(=O)c1ccccc1/C=C1\\Cc2cc3c(cc2C1=O)CCC3")
"label 0"
>>> group_label("CCOC(=O)CNC(=O)C(CSC(=O)N(O)c1ccc(Cl)cc1)NC(=O)CCC(N)C(=O)OCC (centres undefined)")
"label 0"
>>> group_label("Cc1ccc(NC(=O)COc2ccc(Cl)cc2)cc1Cl")
"label 0"
>>> group_label("O=C(O)C(C1NCCS1)N1C(=O)c2ccccc2C1=O (centres undefined)")
"label 0"
>>> group_label("O=C1Sc2ccccc2/C1=N/Nc1ccccc1[N+](=O)[O-]")
"label 0"
>>> group_label("O=[N+]([O-])c1cc2oc(COc3ccccc3)nc2cc1Cl")
"label 0"
>>> group_label("O[C@@]12Cc3c([nH]c4ccccc34)[C@@H]3Oc4cccc5c4[C@@]31CCN(CC1CC1)[C@@H]2C5")
"label 0"
>>> group_label("COc1ccc(OC)c(NC(=O)C(=O)C(C(C)=O)c2nc3ccc(Cl)cc3nc2O)c1 (centres undefined)")
"label 0"
>>> group_label("CCN1c2cc(Br)cc3[nH]c(=O)n(c23)CCC1C (centres undefined)")
"label 0"
>>> group_label("CNC1C(O)C(NC)C2OC3(O)C(=O)CC(C)OC3OC2C1O (centres undefined)")
"label 0"
>>> group_label("O=C1N/C(=N/N=C/c2c[nH]c3ccccc23)N/C1=C\\c1cccs1")
"label 0"
>>> group_label("Cc1cn(CC2(CO)CCC2)c(=O)[nH]c1=O")
"label 0"
>>> group_label("CC[C@H](CCCC[C@H]1CC[C@@H]2CC(=O)C[C@H]12)OC")
"label 0"
>>> group_label("CCN(CC)/[N+]([O-])=N/OC")
"label 0"
>>> group_label("Cc1noc(NC(=O)Nc2ccccc2F)c1C#N")
"label 0"
>>> group_label("N#CCCN(C(=O)Nc1ccccc1)[C@H]1CCCC[C@@H]1N(C(=O)Nc1ccccc1)c1ccccc1")
"label 0"
>>> group_label("CNC1=C(C)C(=O)C2=C(C1=O)C(COC(N)=O)C1(OC)C3NC3CN21 (centres undefined)")
"label 1"
>>> group_label("CNS(=O)(=O)NN(C)S(=O)(=O)c1ccc(F)cc1")
"label 0"
>>> group_label("CN(c1ccc(Cl)cc1)S(=O)(=O)c1ccccc1")
"label 0"
>>> group_label("COC(=O)C(C)(C)OCc1ccc(C2NC(=O)N(c3cccc(Cl)c3)C(=O)N2c2cccc(Cl)c2)cc1 (centres undefined)")
"label 0"
>>> group_label("COC(=O)c1cc(C(=O)OC)c(CC(=O)C(=O)NC2C3CC4CC(C3)CC2C4)nc1CC(=O)C(=O)NC1C2CC3CC(C2)CC1C3 (centres undefined)")
"label 0"
>>> group_label("Nc1ncnc2c1sc(=S)n2-c1ccccc1")
"label 0"
>>> group_label("CC(=O)NC1C(OCC(=O)NCCNc2ccc([N+](=O)[O-])c3[nH]c4ccccc4c(=O)c23)C(O)C(CO)OC1(C)OCc1ccccc1 (centres undefined)")
"label 0"
>>> group_label("CC[C@]12C=CCN3CC[C@@]4(c5cc(Br)c(OC)cc5N(C)[C@H]4[C@@](O)(C(=O)NC(Cc4c[nH]c5ccccc45)C(=O)OC)[C@@H]1O)[C@@H]32 (some centres undefined)")
"label 0"
>>> group_label("O=C1Nc2ccccc2/C1=N/Nc1c(F)c(F)c(F)c(F)c1F")
"label 0"

Where these numbers come from: ChEMBL document CHEMBL1201862
